The reported numbers originate from patent US20250114463A1.

- subject.of.test: T1, human GIP receptor (human, UniProt P48546 22-466)
- T1 sequence (looked up): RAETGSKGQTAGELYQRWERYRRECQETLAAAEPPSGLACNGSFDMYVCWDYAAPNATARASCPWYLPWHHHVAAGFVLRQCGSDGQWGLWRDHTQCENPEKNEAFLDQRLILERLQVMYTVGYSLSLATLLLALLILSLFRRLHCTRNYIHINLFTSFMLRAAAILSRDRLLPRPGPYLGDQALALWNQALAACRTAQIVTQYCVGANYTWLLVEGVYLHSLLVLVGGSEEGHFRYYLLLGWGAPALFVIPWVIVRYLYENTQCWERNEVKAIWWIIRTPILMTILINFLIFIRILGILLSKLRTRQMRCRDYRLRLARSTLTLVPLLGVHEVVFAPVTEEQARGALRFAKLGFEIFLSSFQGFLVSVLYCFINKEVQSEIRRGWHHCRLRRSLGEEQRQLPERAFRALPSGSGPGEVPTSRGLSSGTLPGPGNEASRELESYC
- method.summary: cell-based or functional assay
Bridges are numbered along the chain shown (N, C = ends). Where no end group is shown, it is not given here. [ ]: non-standard residue; d: D form. The star is where a group is joined. Acetyl(2-(4-imidazolyl)) = O=C(Cc1c[nH]cn1)*; Aib = CC(C)(N)C(=O)O
Listed next: entries and their corresponding in vitro Activity Compared to Native Peptide (%), vs GIP.

Consider the reported in vitro Activity Compared to Native Peptide (%), vs GIP for these binders:
binder="[Acetyl(2-(4-imidazolyl))]GEGTFISDLSKYMDEQAVQLFVEWLMAGGPSSGAPPPSHG-NH2 [triple agonist of SEQ ID NO: 12]" recorded_measurement="< 0.1%"
binder="Y[Aib]QGTFTSDYSKYLDECRAKEFVQWLLAQKGKKNDWKHNIT (bridge 16-20; not fully specified (C-terminus)) [triple agonist of SEQ ID NO: 23]" recorded_measurement="< 0.1%"

### Prompt Which in vitro Activity Compared to Native Peptide (%), vs GIP value is on record for H[Aib]QGTFTSDYSKYLDEKRAQEFVCWLLAQKGKKNDWKHNIT-NH2 [triple agonist of SEQ ID NO: 28] ?
### Response < 0.1%
